B1: PhoQ; a variant is named by its letters at X, in order, P23837 (parent)
chain: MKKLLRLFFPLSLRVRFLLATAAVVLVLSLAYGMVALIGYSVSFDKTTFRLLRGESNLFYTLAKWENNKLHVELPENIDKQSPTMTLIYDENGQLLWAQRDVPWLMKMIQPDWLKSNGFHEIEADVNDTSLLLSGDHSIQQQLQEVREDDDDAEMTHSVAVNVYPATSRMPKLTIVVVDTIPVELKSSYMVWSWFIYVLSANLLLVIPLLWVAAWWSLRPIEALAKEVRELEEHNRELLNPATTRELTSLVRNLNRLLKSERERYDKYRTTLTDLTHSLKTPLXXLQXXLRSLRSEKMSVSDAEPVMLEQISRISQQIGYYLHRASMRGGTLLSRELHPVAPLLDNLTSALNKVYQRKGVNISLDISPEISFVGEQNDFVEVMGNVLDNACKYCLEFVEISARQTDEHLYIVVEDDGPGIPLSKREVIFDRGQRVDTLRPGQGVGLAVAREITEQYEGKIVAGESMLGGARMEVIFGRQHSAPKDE

Variants of: B1
Test: enrichment ratio after two sorts for PhoP signalling (ratio (wild type AVST 3.29)); higher = more functional
Details: with PhoP (E. coli)
In all, about 140,000 sequences were measured (“enrichment ratio after two sorts for PhoP signalling”: median about 0, highest 2% from about 11 on). This excerpt belongs to a sample that is enriched for the highest values.
OUTCOME MEASURE: enrichment ratio
Form rule: numeric answer, no unit written next to it.

Observe how each entry below is paired with its result.
YNMI | 0.268
SETS | 12
FSLG | 8.53
SETC | 13.2

Query: Consider the variant shown here: SDLA What is its recorded enrichment ratio?
Reply: 1.18

Query: Using the record for SHNH , report its enrichment ratio.
Reply: 1.34
